Test system: KR12C (synthetic, derived from human LL37)
TEST SUMMARY: ITC
RUN CONDITIONS: ITC: 10 mM potassium phosphate pH 7.0, 100 mM KCl, 25 C; 20 uM peptide in cell, 500 uM G4 DNA in syringe; one-site fit. NMR: same buffer, 10% D2O, NOESY at …
EXPERIMENTAL READOUT: Kd (µM)
Give just the numeric value; µM need not be written.

Summary for this sequence, TGGGGAGGGTGGGGAGGGTGGGGAAGG [Pu27 c-MYC quadruplex] : Kd is 8.06

* * *

System: KR12B (synthetic, derived from human LL37)
TEST SUMMARY: ITC
RUN CONDITIONS: ITC: 10 mM potassium phosphate pH 7.0, 100 mM KCl, 25 C; 20 uM peptide in cell, 500 uM G4 DNA in syringe; one-site fit. NMR: same buffer, 10% D2O, NOESY at …
EXPERIMENTAL READOUT: Kd (µM)
Answer in µM, number only, no unit symbol.

According to the records, this sequence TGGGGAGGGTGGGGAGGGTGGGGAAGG [Pu27 c-MYC quadruplex] displays Kd of 37.3

* * *

System: KR12A (synthetic, derived from human LL37)
TEST SUMMARY: ITC
RUN CONDITIONS: ITC: 10 mM potassium phosphate pH 7.0, 100 mM KCl, 25 C; 20 uM peptide in cell, 500 uM G4 DNA in syringe; one-site fit. NMR: same buffer, 10% D2O, NOESY at …
EXPERIMENTAL READOUT: pKd
Please treat pKd as minus the base-10 logarithm of the molar concentration.

# pKd (sequence: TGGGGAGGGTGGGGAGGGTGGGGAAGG [Pu27 c-MYC quadruplex] ) is 4.21

* * *

Listed here are substances together with their documented K A.
System: native c-MYC quadruplex (Pu27)
TEST SUMMARY: ITC of peptides with native c-MYC quadruplex Pu27 in potassium phosphate buffer
Assay type: binding, human
RUN CONDITIONS: 25°C, 20 μM peptide in cell, 500 μM Pu27 in syringe, 10 mM potassium phosphate, 0.1 M KCl, pH 7.0, one-site model
// note: answer is a bare numeric in M⁻¹

Reference set, count: 5
> print(dat)
                                  substance  result
1  N – KRIVKVIKKWLR – C [KR12D, dodecameric mutant peptide derived from FK13 / LL37]   20400
2  N – KRIVKRIKKWLR – C [KR12B, dodecameric mutant peptide derived from FK13 / LL37]   26800
3              N – KRIVKLIKKWLR – C [KR12C]  124000
4  N – KRIVQRIKKWLR – C [KR12A, dodecameric mutant peptide derived from FK13 / LL37]   16200
5  N – KRIVKRIKKWLL – C [KR12E, dodecameric mutant peptide derived from FK13 / LL37]   18800

Now for the substance whose K A we want.
Reported K A for N – FKRIVQRIKDFLR – C [FK13] was 28900
